molecular target: 5-HT2C receptor (Homo sapiens, UniProt P28335); experiment: Human 5-HT2C functional assay (beta-arrestin2 recruitment, U2OS_HTR2C_β-Arrestin cells); conditions: beta-arrestin2 recruitment, U2OS_HTR2C_β-Arrestin cells, 1.5 h incubation; read-out: EC50 5-HT2C (potency in functional assay)
Sequence (P28335 33-458): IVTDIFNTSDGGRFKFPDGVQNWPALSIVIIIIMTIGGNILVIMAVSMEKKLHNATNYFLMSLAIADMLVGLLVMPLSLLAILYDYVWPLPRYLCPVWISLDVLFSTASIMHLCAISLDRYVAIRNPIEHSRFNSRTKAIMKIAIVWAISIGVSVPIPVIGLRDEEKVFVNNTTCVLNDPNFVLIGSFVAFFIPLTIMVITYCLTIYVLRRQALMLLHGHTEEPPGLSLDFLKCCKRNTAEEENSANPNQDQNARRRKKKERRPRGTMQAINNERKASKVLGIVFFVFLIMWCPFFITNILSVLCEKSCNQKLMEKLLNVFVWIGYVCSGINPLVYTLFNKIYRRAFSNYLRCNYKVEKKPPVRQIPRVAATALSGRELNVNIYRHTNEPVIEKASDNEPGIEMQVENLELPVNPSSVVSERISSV
Sequence (P32121 whole entry partner): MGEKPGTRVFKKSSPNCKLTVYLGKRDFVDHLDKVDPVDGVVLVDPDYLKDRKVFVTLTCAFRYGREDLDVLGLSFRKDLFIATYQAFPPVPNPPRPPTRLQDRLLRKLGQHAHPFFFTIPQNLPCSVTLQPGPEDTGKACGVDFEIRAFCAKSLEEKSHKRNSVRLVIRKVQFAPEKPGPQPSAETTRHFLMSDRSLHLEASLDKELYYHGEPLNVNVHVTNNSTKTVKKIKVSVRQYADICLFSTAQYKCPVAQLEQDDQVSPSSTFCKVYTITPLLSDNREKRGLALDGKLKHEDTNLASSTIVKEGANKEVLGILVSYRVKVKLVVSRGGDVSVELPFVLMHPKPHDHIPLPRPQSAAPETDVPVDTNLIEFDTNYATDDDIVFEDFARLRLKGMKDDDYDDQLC
pEC50: −log10 of the molar value. Structures can show the parent of a compound that is named as a salt.
Below, each entry is listed alongside its reported pEC50.
assay endpoint: pEC50

COc1nc(C(F)(F)C(Cl)c2ccccc2)c(F)cc1CN(C)C(=O)C1CCCN1 (stereo not shown) [Example 192, Dihydrochloride]: 6.00 to 6.70
COc1nc(C2=CCC(OC)CC2)c(F)cc1CNC(=O)[C@@H]1CCCN1 (stereo partly shown): 6.00 to 6.70
COc1nc(O[C@H]2CC[C@@H](C(F)(F)F)CC2)c(F)cc1CN(C)C(=O)[C@@H]1CCCN1 [Example 119, hydrochloride]: 6.70 to 7.70
COc1nc(O[C@H]2CCC[C@@H](C(F)(F)F)C2)c(F)cc1CNC(=O)[C@@H]1CCCN1 (relative stereo) [Example 88, Hydrochloride]: > 7.70
COc1nc(OCC(F)(F)C(F)F)c(F)cc1CNC(=O)[C@@H]1CCCN1: > 7.70
COc1nc(CC2CCOCC2)c(F)cc1CNC(=O)[C@@H]1CCCN1: 6.00 to 6.70
CCCN(Cc1ccccc1)c1nc(OC)c(CNC(=O)[C@@H]2CCCN2)cc1F [Example 171, Hydrochloride]: 6.00 to 6.70
COc1nc(NC2CCC(C(F)(F)F)CC2)c(F)cc1CNC(=O)[C@@H]1CCCN1 (stereo partly shown): > 7.70
COc1nc(OC2CCC(F)(F)CC2)c(F)cc1CN(C)C(=O)[C@@H]1CCCN1 [Example 114, Hydrochloride]: > 7.70
COc1nc(N(C)Cc2ccccc2)c(F)cc1CNC(=O)[C@@H]1CCCN1: 6.00 to 6.70
COc1nc(OC2CCCC3C2C3(F)F)c(F)cc1CNC(=O)[C@@H]1CCCN1 (stereo partly shown): > 7.70
COc1nc(NC2CCC(F)(F)CC2)c(F)cc1CNC(=O)[C@@H]1CCCN1: > 7.70
COc1nc(C2=CCC(C(F)(F)F)CC2)c(F)cc1CNC(=O)[C@@H]1CCCN1 (stereo partly shown): > 7.70
COc1nc(OCC(F)(F)F)c(F)cc1CNC(=O)[C@@H]1CCCN1: > 7.70
COc1nc(OCC(F)(F)F)c(F)cc1CN(C)C(=O)[C@@H]1CCCN1C [Example 113, Hydrochloride]: 6.00 to 6.70
COc1nc(NC2CCC(F)(F)CC2)c(F)cc1CN(C)C(=O)[C@@H]1CCCN1: 6.70 to 7.70
COc1nc(OCC2(C(F)(F)F)CC2)c(F)cc1CN(C)C(=O)[C@@H]1CCCN1 [Example 76, Hydrochloride]: > 7.70
COc1nc(OC2CCC(O)CC2)c(F)cc1CNC(=O)[C@@H]1CCCN1 (stereo partly shown): 6.00 to 6.70
COc1nc(OC2CC(F)(F)C2)c(F)cc1CNC(=O)[C@@H]1C[C@@H](F)CN1 [Example 94, Hydrochloride]: > 7.70
COc1nc(O[C@H]2CC[C@H](C(F)(F)F)CC2)c(F)cc1CNC(=O)[C@H]1NC[C@@H]1C: 6.70 to 7.70
COc1nc(N2CCC(F)(F)CC2)c(F)cc1CNC(=O)[C@@H]1CCCN1: > 7.70
COc1nc(NCC2CCC(C(F)(F)F)CC2)c(F)cc1CNC(=O)[C@@H]1CCCN1 (single isomer, unassigned): 6.70 to 7.70

---

Below, each entry is listed alongside its reported Emax.
target: 5-HT2C receptor (Homo sapiens, UniProt P28335); construct: host or cells: U2OS; assay: Human 5-HT2C functional assay (beta-arrestin2 recruitment, U2OS_HTR2C_β-Arrestin cells); type: cell-based; details: relative efficacy vs response to 10 μM 5-HT or maximal 5-HT effect (100%)
Structures can show the parent of a compound that is named as a salt.
assay endpoint: Emax

COc1nc(OC2CCC(F)(F)C2)c(F)cc1CN(C)C(=O)[C@@H]1CCCN1 (some centres unmarked) [Example 123, Hydrochloride]: 50 to 70%
COc1nc(OC2CCC(F)(F)CC2)cnc1CNC(=O)[C@@H]1CCCN1: > 70%
COc1nc(N[C@H]2CC[C@@H](C(F)(F)F)CC2)c(F)cc1CNC(=O)[C@@H]1CCCN1: > 70%
COc1nc(O[C@H]2CC[C@H](F)CC2)c(F)cc1CNC(=O)[C@@H]1CCCN1: > 70%
COc1nc(O[C@H]2CCC[C@H](C(F)(F)F)C2)c(F)cc1CNC(=O)[C@@H]1CCCN1 (relative stereo) [Example 89, Hydrochloride]: > 70%
COc1nc(CC2CCOCC2)c(F)cc1CNC(=O)[C@@H]1CCCN1: 50 to 70%
COc1nc(OCc2cc(F)cc(F)c2)c(F)cc1CN(C)C(=O)[C@@H]1CCCN1 [Example 122, Hydrochloride]: > 70%
COc1nc(OCC2(C(F)(F)F)CC2)c(F)cc1CNC(=O)[C@@H]1CCCN1C [Example 63, Hydrochloride]: > 70%
COc1nc(N(C)Cc2ccccc2)c(F)cc1CNC(=O)[C@@H]1CCCN1: 50 to 70%
COc1nc(OC(C(F)(F)F)C(F)(F)F)c(F)cc1CNC(=O)[C@@H]1CCCN1 [Example 111, Hydrochloride]: > 70%
COc1nc(N(C)CCc2ccccc2)c(F)cc1CNC(=O)[C@@H]1CCCN1 [Example 137, Hydrochloride]: > 70%
COc1nc(NCC2CC(F)(F)C2)c(F)cc1CNC(=O)[C@@H]1CCCN1: > 70%
COc1nc(OCC2(C(F)(F)F)CC2)c(F)cc1CNC(=O)[C@@H]1CCCN1: > 70%
COc1nc(OC2CCC(C(F)(F)F)CC2)c(F)cc1CNC(=O)[C@H]1NC[C@@H]2C[C@@H]21 (some centres unmarked) [Example 85, Hydrochloride]: 30 to 50%
COc1nc(OC2CCC(F)(F)CC2)c(F)cc1CNC(=O)[C@@H]1C=CCN1C: > 70%
COc1nc(N2CCc3ccccc32)c(F)cc1CNC(=O)[C@@H]1CCCN1 [Example 138, Hydrochloride]: > 70%
COc1nc(OCC(F)(F)C(F)F)c(F)cc1CNC(=O)[C@@H]1CCCN1C [Example 91, Hydrochloride]: > 70%

---

biological target: UniProt P28335; assay: Human 5-HT2C functional assay (beta-arrestin2 recruitment, U2OS_HTR2C_β-Arrestin cells); settings: beta-arrestin2 recruitment, U2OS_HTR2C_β-Arrestin cells, 1.5 h incubation; read-out: EC50 5-HT2C (potency in functional assay)
Where a name gives a salt, the structure may show the parent alone.
Below, each entry is listed alongside its reported EC50.
assay endpoint: EC50

COc1nc(OC2CCC(C(F)(F)F)CC2)c(F)cc1CNC(=O)[C@H]1NC[C@H]1C (stereo partly shown): 20 to 200 nM
COc1nc(-c2ccccc2)c(F)cc1CNC(=O)[C@@H]1CCCN1: 200 to 1000 nM
COc1nc(OCC(F)(C(F)(F)F)C(F)(F)F)c(F)cc1CNC(=O)[C@@H]1CCCN1 [Example 69, Hydrochloride]: < 20 nM
COc1nc(OC2CCC(OC)CC2)c(F)cc1CNC(=O)[C@@H]1CCCN1C (stereo partly shown): 20 to 200 nM
